Where these numbers come from: patent US20240327505A1

Give measured koff for each item. Keep answers brief.
- TARGET ENTITY: SARS-CoV-2 spike S1 protein (SARS-CoV-2, UniProt P0DTC2 16-685)
Give your result in s⁻¹ as a bare value.

Consider AB-009269 (antibody, V domains shown) VH: QVQLVQSGAEVKKPGASVKVSCKASGYTFTSYGISWVRQAPGQGLEWMGWISAYNGNTNYAQKLQGRVTMTTDTSTSTAYMELRSLRSDDTAVYYCAREGDCSGGSCYSGYYYYYGMDVWGQGTTVTVSS VL: EIVLTQSPATLSLSPGERATLSCRASQSVSSYLAWYQQKPGQAPRLLIYDASNRATGIPARFSGSGSGTDFTLTISSLEPEDFAVYYCQQRSNWGTFGPGTKVDIK . Its measured koff is 0.000643

Consider AB-009646 (antibody, V domains shown) VH: QVQLVESGGGVVQPGRSLRLSCAASGFTFSSYAMHWVRQAPGKGLEWVAVISYDGSNKYYADSVKGRFTISRDNSKNTLYLQMNSLRAEDTAVYYCARACSSTSCYKGDAFDIWGQGTMVTVSS VL: SYELTQPPSVSVSPGQTARITCSGDALPKQYAYWYQQKPGQAPVLVIYKDSERPSGIPERFSGSSSGTTVTLTISGVQAEDEADYYCQSADSSGTYSWVFGGGTKLTVL . Its measured koff is 0.00231

Consider AB-009731 (antibody, V domains shown) VH: QVQLVQSGAEVKKTGASVKLSCKASGYSLTSYAMHWVRQAPGQRLEWMGWLNGGNGNTKYSQKFQARVTITSDTSARTVYMELSSLTSEDTAVYYCARADHSTYWYGWFDPWGQGTLVTVSS VL: QSVLTQPPSASGTPGQRVTISCSGSTSNIGSNYVFWYQQFPGTAPKLLIYRNDQRPSGVPDRFSASKAGTSASLAISGLRSEDEADYYCTSWDDSLNGPLFGGGTKLTVL . Its measured koff is 0.00294

Consider AB-009251 (antibody, V domains shown) V domain 1: QVQLVQSGAEVKKPGASVKVSCKTSGYTFTTFYIHWVRQVPGQGLEWMGIINPDGGSTNYAQEFQARVTMTTDTSTSTAYMELSSLRFEDTAVFYCATSLGAPPGLSPRTGPQRRGPPGFDFWGQGTLITVSA V domain 2: QSVLTQPPSVSGAPGQRVTISCTGSSSNIGAGYDVHWYQQLPGTAPKLLIFDNNNRPSGVPYRFSGSRSGTSASLAITGLQPEDEADYYCQSYDSSLSGRVFGGGTRVTVL . Its measured koff is 0.000544
